Please respond with reported koff for every item in the list.
system-name: T1, Taq DNA polymerase (Thermus aquaticus, UniProt P19821 1-832)
T1 construct: also called Taq enzyme; Taq DNA enzyme
T1 sequence (P19821 whole entry): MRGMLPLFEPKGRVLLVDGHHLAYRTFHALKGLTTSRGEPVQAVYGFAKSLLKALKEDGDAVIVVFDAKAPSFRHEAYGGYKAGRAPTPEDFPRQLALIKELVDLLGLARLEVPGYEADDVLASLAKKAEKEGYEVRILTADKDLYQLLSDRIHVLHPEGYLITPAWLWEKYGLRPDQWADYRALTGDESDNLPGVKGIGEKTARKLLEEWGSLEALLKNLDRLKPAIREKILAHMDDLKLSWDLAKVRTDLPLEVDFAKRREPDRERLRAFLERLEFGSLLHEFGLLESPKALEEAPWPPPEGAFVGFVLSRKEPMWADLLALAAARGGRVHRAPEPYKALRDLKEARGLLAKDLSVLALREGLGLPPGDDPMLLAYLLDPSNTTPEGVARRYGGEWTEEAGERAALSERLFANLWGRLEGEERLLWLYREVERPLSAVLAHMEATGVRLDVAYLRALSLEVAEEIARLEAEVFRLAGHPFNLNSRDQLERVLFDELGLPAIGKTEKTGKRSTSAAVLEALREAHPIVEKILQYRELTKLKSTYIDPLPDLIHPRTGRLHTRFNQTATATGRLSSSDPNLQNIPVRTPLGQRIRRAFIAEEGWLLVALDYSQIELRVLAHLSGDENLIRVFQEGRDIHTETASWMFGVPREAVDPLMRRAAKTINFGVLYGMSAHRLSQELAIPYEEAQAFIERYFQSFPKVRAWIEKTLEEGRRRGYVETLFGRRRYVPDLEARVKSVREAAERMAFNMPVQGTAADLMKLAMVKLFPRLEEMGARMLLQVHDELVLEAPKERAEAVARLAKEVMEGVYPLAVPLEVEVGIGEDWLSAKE
assay: AMC sensor, antibody immobilised
Give bare numbers, in s⁻¹.

Some binders with known koff results, for comparison:
binder	koff [s⁻¹]
Mutation 1-56 (antibody, V domains shown, Mutation 1 background; CDRs built) VH: QVQLQQPGAELVKPGASVRLSCQTSVDTFTTYYIYWVKQRPGEGLEWIGGINPTSGGPVFNEKFKSKATLTVDTSSSTAYMQLSSLTSVDSAVYYCTRSIIRRGYYFDYWGQGTALTVSS VL: DIQMTQTTSSLSASLGDRVTISCRASQDIQNYLNWYQQKPDGTIKLLIYYTSRLNSGLPSRFSGSGSGTDYSLTIANLEQEDIATYFCQQDDTIPLTFGAGTKVELKR	3.79e-05
Mutation 1-55 (antibody, V domains shown, Mutation 1 background; CDRs built) VH: QVQLQQPGAELVKPGASVRLSCQTSVDTFSTYYIYWVKQRPGEGLEWIGGVNPTSGGPVFNEKFKSKATLTVDTSSSTAYMQLSSLTSVDSAVYYCTRSIVRRGYYFDYWGQGTALTVSS VL: DIQMTQTTSSLSASLGDRVTISCRASQDINNYVNWYQQKPDGTIKLLIYYTSRLNSGIPSRFSGSGSGTDYSLTIANLEQEDIATYFCQQDDTIPITFGAGTKVELKR	1.12e-05
Mutation 1-2 (antibody, V domains shown, Mutation 1 background; CDRs built) VH: QVQLQQPGAELVKPGASVRLSCQTSVETFSTYYIYWVKQRPGEGLEWIGGLNPTSNPVFNEKFKSKATLTVDTSSSTAYMQLSSLTSVDSAVYYCTRSIIRRGYYFDYWGQGTALTVSS VL: DIQMTQTTSSLSASLGDRVTISCRASQDIQNYLNWYQQKPDGTIKLLIYYTSRLQSGLPSRFSGSGSGTDYSLTIANLEQEDIATYFCQQDDTIPLTFGAGTKVELKR	1.42e-05
Mutation 1-39 (antibody, V domains shown, Mutation 1 background; CDRs built) VH: QVQLQQPGAELVKPGASVRLSCQTSVNTFTTYYIYWVKQRPGEGLEWIGGINPTSGGPVFNEKFKSKATLTVDTSSSTAYMQLSSLTSVDSAVYYCTRSVLRRGYYFDYWGQGTALTVSS VL: DIQMTQTTSSLSASLGDRVTISCRASQDINNYLNWYQQKPDGTIKLLIYYTSRLQSGVPSRFSGSGSGTDYSLTIANLEQEDIATYFCQQDDTVPLTFGAGTKVELKR	2.2e-05

Query binder follows.
Name the reported koff value associated with the binder Mutation 1-43 (antibody, V domains shown, Mutation 1 background; CDRs built) VH: QVQLQQPGAELVKPGASVRLSCQTSVETFTTYYIYWVKQRPGEGLEWIGGLNPTSNPVFNEKFKSKATLTVDTSSSTAYMQLSSLTSVDSAVYYCTRSLVRRGYYFDYWGQGTALTVSS VL: DIQMTQTTSSLSASLGDRVTISCRASQDINNYVNWYQQKPDGTIKLLIYYTSRLHSGLPSRFSGSGSGTDYSLTIANLEQEDIATYFCQQDDTLPITFGAGTKVELKR
6.92e-05
